Target: T1, γδ T cell receptor on human γδ T cells (human)
T1 construct: Mixed population of primary cells; also called AG000003021 (γδ T cells)
Experiment: flow cytometry, dose-response binding at 37° C. on human γδ T cells
Procedure: Binding of antibodies to human γδ T cells or SKW cell lines expressing Vγ9/Vδ2, Vγ9/Vδ2 or Vγ5/Vδ2 was carried out by flow cytometry. […] Gating and data analysis: Human anti-human Vγ9 antibody (VG9B2 mAb at 10 nM) was used to mark the gating of positive population. […] Cells were also assessed for cell binding of control mAbs by RL1 (A647) Geomeans from the live cell population. […]
property name: Max. Activity (fold over background)
Value expressed in fold over background; do not type the unit.

Which Max. Activity is reported for this binder? VG9B152 (antibody, human IgG1, lambda, V domains shown) VH: EVQLVESGGGLVRPGGSLRLSCEASGFTFSSYSMIWVRQAPGKGLEWVSSISSSSDYIYNADSVKGRFTISRDNAKNSLYLQMNSLRAEDTAVYYCARDWELLGFDCWGQGTTVTVSS VL: SYELMQPPSVSVSPGQTASITCSGDKLGDKYACWYQQKPGQSPVLVIYQHNKRPSGIPERFSGSNSGKTATLTISGTQAMDEADYYCQAWDSTTVVFGGGTKLTVLG 1850

Which Max. Activity is reported for this binder? VG9B33 (antibody, human IgG1, kappa, V domains shown) VH: EVQLVESGGGLVKPGGSLRLSCAASGFTFSSYNMNWVRQAPGKGLEWVSSISTSSSYIYYADSVKGRFTISRDNAKNSLYLQMNGLRAEDTAVYYCARDTSVTKYPDTFDIWGQGTMVTVSS VL: DIVMTQSPSSLSASVGDRVTITCRASQDINNYLAWFQQKPGKVPNLLIYGASTLQSGVPSRFTGSGSGTDFTLTISSLQPEDVATYYCQKYNSAPFTFGPGTKVDIKR 2090

Which Max. Activity is reported for this binder? VG9B191 (antibody, human IgG1, lambda, V domains shown) VH: EVQLVQSGGGLVKPGGSLRLSCAASGFTFSRYSMNWVRQAPGKGLEGVSSISSSSSYIYYADSVKGRFTISRDNAKNSLYLQMNSLRAEDTAVYYCARDGPTVNWDYYFDLWGRGTLVTVSS VL: QSVLTQPPSVSAAPGQKVTISCSGSSSNIGNNYVSWYQQLPGTAPKLLIYDNNKRPSGIPDRFSGSKSGTSATLGITGLQTGDEADYYCGTWDSSLSTSVVFGGGTKLTVLG 2370

Recorded values, source patent US20220125947A1.
